target: AchR (Homo sapiens, UniProt P02708); experiment: ELISA of screened peptide phages on AchR versus streptavidin (OD450); format: binding; conditions: ELISA of selected 14-mer (L3) peptide phages on AchR, absorbance at 450 nm; Spep-2 positive control
Sequence (P02708 21-457): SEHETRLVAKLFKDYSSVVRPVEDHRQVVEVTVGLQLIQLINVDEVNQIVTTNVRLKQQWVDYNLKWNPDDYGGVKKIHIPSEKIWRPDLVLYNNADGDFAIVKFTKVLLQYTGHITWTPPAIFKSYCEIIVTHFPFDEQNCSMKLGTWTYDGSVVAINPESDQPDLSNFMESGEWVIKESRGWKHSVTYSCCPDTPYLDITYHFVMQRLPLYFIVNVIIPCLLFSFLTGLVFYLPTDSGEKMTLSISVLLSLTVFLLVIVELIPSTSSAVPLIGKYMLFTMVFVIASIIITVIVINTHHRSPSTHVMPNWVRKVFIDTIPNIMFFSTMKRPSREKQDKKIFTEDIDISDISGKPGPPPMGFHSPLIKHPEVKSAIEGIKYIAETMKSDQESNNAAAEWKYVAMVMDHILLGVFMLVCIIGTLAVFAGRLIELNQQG
recorded endpoint: OD

L3-25 (CFQRKRKSLLRVLR; AchR binding peptide) [Peptide L3-25] ... 0.807
L3-73 (WTCRMRKYQLRTSE; AchR binding peptide) [Peptide L3-73] ... 0.771
L3-133 (VDSREKKWRQKCQC; AchR binding peptide) [Peptide L3-133] ... 0.566
L3-62 (YPERPRKLQDKSYS; AchR binding peptide) [Peptide L3-62] ... 0.766
L3-126 (YVDRWRRMQYKLSI; AchR binding peptide) [Peptide L3-126] ... 0.542
L3-172 (VTGKGRRVTFRCMN; AchR binding peptide) [Peptide L3-172] ... 0.634

* * *

Target: AchR (Homo sapiens)
Experiment: ELISA of screened peptide phages on AchR versus streptavidin (OD450)
Format: binding
Conditions: ELISA of selected 11-mer (L2) peptide phages on AchR, absorbance at 450 nm; Spep-2 positive control
Procedure: The output phages for the 4th and 5th rounds of biopanning in Example 13-1 were inoculated to E. coli, and plated on the agar plates so as to form 100-200 plaques per plate. […] In a 96-well ELISA plate, 5 μg/ml AchR or streptavidin was added at 50 μl per well, and left at 4° C. overnight. […] The measured absorbance was converted into a ratio of AchR absorbance to streptavidin absorbance (AchR signal/streptavidin signal), and the results are shown in FIGS. 14 to 16.
Consider the following substances and their measured OD readings.
recorded endpoint: OD

L2-102 (YTSRCKKQPRK; AchR binding peptide) [Peptide L2-102] ... 0.608
L2-27 (QGEKYRRTESK; AchR binding peptide) [Peptide L2-27] ... 0.747
L2-164 (VPTKMKKYETK; AchR binding peptide) [Peptide L2-164] ... 0.733
L2-55 (PACRSKRDWQK; AchR binding peptide) [Peptide L2-55] ... 0.524
L2-119 (FCRRSKKIGRR; AchR binding peptide) [Peptide L2-119] ... 0.56

* * *

Target: AchR (Homo sapiens)
Assay: ELISA of screened peptide phages on AchR versus streptavidin (OD450)
Type: binding
Conditions: phage ELISA, absorbance at 450 nm, 5 μg/ml AchR; 4th and 5th round biopanning phages
Protocol: The output phages for the 4th and 5th rounds of biopanning in Example 13-1 were inoculated to E. coli, and plated on the agar plates so as to form 100-200 plaques per plate. […] In a 96-well ELISA plate, 5 μg/ml AchR or streptavidin was added at 50 μl per well, and left at 4° C. overnight. […] The measured absorbance was converted into a ratio of AchR absorbance to streptavidin absorbance (AchR signal/streptavidin signal), and the results are shown in FIGS. 14 to 16.
No end group written: not given here.
# key: entry, value: OD
recorded endpoint: OD

KMRRAQGR [Peptide L1-34] ... 0.634
KDKKMPQR [Peptide L1-185] ... 0.55
RIRRHMYR [Peptide L1-83] ... 0.621
KHKKQNVR [Peptide L1-18] ... 0.627
KVKRLPYR [Peptide L1-146] ... 0.362
KDKKQWGR [Peptide L1-114] ... 0.42
KDKRWANR [Peptide L1-77] ... 0.636
RLRKSLGK [Peptide L1-95] ... 0.535
KVKRLWNR [Peptide L1-110] ... 0.422
KLKRRSRR [Peptide L1-16] ... 0.62
RNKRMDGK [Peptide L1-157] ... 0.585
KWRREQFR [Peptide L1-76] ... 0.588
KRRRFRWK [Peptide L1-40] ... 0.424
KERKASAK [Peptide L1-63] ... 0.618
RSRRCPVK [Peptide L1-119] ... 0.463
KDRKVNSR [Peptide L1-97] ... 0.546
RIKRDYCK [Peptide L1-164] ... 0.616
WTWKGRKSLLR [Spep-2, WTWKGRKSLLR] ... 0.303
KTKRMLAK [Peptide L1-47] ... 0.54
KGKKLSQR [Peptide L1-75] ... 0.581
KNKRWVFK [Peptide L1-141] ... 0.505
RLKKHCGK [Peptide L1-187] ... 0.668
RLKRGQFK [Peptide L1-85] ... 0.57
RCKRCDNK [Peptide L1-120] ... 0.388
KSRRAVFR [Peptide L1-151] ... 0.479
RHKKSPWK [Peptide L1-5] ... 0.657
RVKKAETR [Peptide L1-92] ... 0.581
RSKRMNGK [Peptide L1-58] ... 0.472
RFRRGVRR [Peptide L1-13] ... 0.73
KSKRHHEK [Peptide L1-69] ... 0.474
KEKRAVHK [Peptide L1-48] ... 0.519

* * *

target: AchR (Homo sapiens); assay: ELISA of screened peptide phages on AchR versus streptavidin (OD450); format: binding; conditions: ELISA of selected 11-mer (L2) peptide phages on AchR, absorbance at 450 nm; Spep-2 positive control
Threshold rule: OD greater than or equal to 0.7 is t; below that, f.

L2-176 (WWHKHRRAQSK; AchR binding peptide) [Peptide L2-176] ... f
L2-6 (PELKCKRMIGR; AchR binding peptide) [Peptide L2-6] ... t
L2-190 (NLVKSKKVEEK; AchR binding peptide) [Peptide L2-190] ... t
L2-106 (QRWKWRKSLAR; AchR binding peptide) [Peptide L2-106] ... t
L2-124 (NVVRGRRLECR; AchR binding peptide) [Peptide L2-124] ... f
L2-38 (ESEKIKRLSTR; AchR binding peptide) [Peptide L2-38] ... t
L2-69 (WCCKTKRAVMK; AchR binding peptide) [Peptide L2-69] ... f
L2-123 (HDTKCKKMYAK; AchR binding peptide) [Peptide L2-123] ... f
L2-146 (LIGKFKKPFYR; AchR binding peptide) [Peptide L2-146] ... f
L2-200 (QGMKLKRIWSK; AchR binding peptide) [Peptide L2-200] ... t
L2-145 (MNEKPKKNDQK; AchR binding peptide) [Peptide L2-145] ... f
L2-138 (IMERQRKSQHR; AchR binding peptide) [Peptide L2-138] ... f
L2-74 (CIMRVKRMWWK; AchR binding peptide) [Peptide L2-74] ... f
L2-10 (TSQKVRKMEAK; AchR binding peptide) [Peptide L2-10] ... t
L2-89 (PPFKFRKPLGR; AchR binding peptide) [Peptide L2-89] ... t
L2-32 (LYMRCKKQAPR; AchR binding peptide) [Peptide L2-32] ... f
L2-180 (DPEKWRKFYDR; AchR binding peptide) [Peptide L2-180] ... t
L2-151 (TQCKDRRVSDR; AchR binding peptide) [Peptide L2-151] ... t
L2-23 (QTYRLKKPLQK; AchR binding peptide) [Peptide L2-23] ... t
L2-134 (VWNKVKRWLER; AchR binding peptide) [Peptide L2-134] ... f
L2-112 (CFFKMRRCNTK; AchR binding peptide) [Peptide L2-112] ... f
L2-195 (CQAKTRKAEDR; AchR binding peptide) [Peptide L2-195] ... f
L2-127 (YIIRWKRQMTR; AchR binding peptide) [Peptide L2-127] ... f
L2-161 (AWFRVKRSNCR; AchR binding peptide) [Peptide L2-161] ... f
L2-155 (NEARIKKCDVK; AchR binding peptide) [Peptide L2-155] ... t
L2-31 (NNSRSKRFMNR; AchR binding peptide) [Peptide L2-31] ... t
L2-51 (SLYRQKRHDYK; AchR binding peptide) [Peptide L2-51] ... f
L2-84 (PWHKGKRDFDR; AchR binding peptide) [Peptide L2-84] ... f

* * *

Item-by-item account of OD
biological target: AchR (Homo sapiens); assay: ELISA of screened peptide phages on AchR versus streptavidin (OD450); format: binding; details: ELISA of selected 14-mer (L3) peptide phages on AchR, absorbance at 450 nm; Spep-2 positive control
recorded endpoint: OD

L3-72 (TGCRCKRSMYKNLH; AchR binding peptide) [Peptide L3-72] ... 0.746
L3-121 (CDDKPKKTVVKLTW; AchR binding peptide) [Peptide L3-121] ... 0.655
L3-159 (QIAKLKRDQMKEAW; AchR binding peptide) [Peptide L3-159] ... 0.786
L3-155 (AWTRFRRFQCKGMS; AchR binding peptide) [Peptide L3-155] ... 0.794
L3-97 (WSAKGRRMGCKSTM; AchR binding peptide) [Peptide L3-97] ... 0.684
L3-78 (FITKSRRQQFRNQG; AchR binding peptide) [Peptide L3-78] ... 0.712
L3-50 (VFDKFRKTENRGVI; AchR binding peptide) [Peptide L3-50] ... 0.634
L3-132 (TITRVKRASHKTPS; AchR binding peptide) [Peptide L3-132] ... 0.619
L3-81 (PTWRHRRYCAKDIG; AchR binding peptide) [Peptide L3-81] ... 0.775
